Biological target: T1, cMetECDHis (human, UniProt P08581 25-932, limits assumed, biotinylated in the cross-block ELISA of Example 17)
T1 construct: Expressed in HEK-293F cells; also called soluble cMetECDHis; biotinylated cMetECDHis
Assay: cross-block ELISA; competitor 022
Description: First, the optimal coating concentrations of the tested anti-c-Met antibodies and the optimal cMetECDHis concentration were determined. Therefore, ELISA wells were coated overnight at 4° C. with anti-c-Met HuMabs serially diluted in PBS (8 μg/mL in 2-fold dilutions). […] ELISA wells were coated with anti-c-Met antibody at a sub-optimal dose as described above. […] Residual binding was expressed as a percentage relative to the binding observed in the absence of competitor antibody.
measured_property: residual binding, % of no competitor (%)
Your answer should be a plain number; it is taken to be in %.

binder	measured_property	value_reported
IgG1-1016-022 (antibody, V domains shown, also called TH1016-022; PC1016-022) VH: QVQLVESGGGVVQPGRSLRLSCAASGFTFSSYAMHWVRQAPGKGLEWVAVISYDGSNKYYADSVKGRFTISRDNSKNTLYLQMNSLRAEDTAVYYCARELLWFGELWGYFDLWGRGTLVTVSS VL: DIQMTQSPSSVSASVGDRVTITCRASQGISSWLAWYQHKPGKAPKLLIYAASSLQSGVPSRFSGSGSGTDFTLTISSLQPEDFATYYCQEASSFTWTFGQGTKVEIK	residual binding, % of no competitor	3.8

Please look at the following binder next.
Ask: Please give the measured residual binding, % of no competitor for this binder: anti-c-Met HuMab 098 (IgG1) (antibody, V domains shown, also called TH1016-098; PC1016-098) VH: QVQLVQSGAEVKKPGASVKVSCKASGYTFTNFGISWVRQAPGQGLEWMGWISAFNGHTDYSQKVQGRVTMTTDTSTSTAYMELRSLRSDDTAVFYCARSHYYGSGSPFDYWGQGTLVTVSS VL: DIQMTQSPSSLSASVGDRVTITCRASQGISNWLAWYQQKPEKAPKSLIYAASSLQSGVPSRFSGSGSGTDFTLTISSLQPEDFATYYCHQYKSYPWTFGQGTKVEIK
Result: 95.8

Reference source: patent US20150329642A1
